Some binders, each annotated with its measured Improvement vs parental, FXa restoring assay.
Molecular target: recombinant TFPI of the FXa restoring assay (human, mouse or rat; not specified for Tables 9 and 10)
Sequence (P10646 29-304): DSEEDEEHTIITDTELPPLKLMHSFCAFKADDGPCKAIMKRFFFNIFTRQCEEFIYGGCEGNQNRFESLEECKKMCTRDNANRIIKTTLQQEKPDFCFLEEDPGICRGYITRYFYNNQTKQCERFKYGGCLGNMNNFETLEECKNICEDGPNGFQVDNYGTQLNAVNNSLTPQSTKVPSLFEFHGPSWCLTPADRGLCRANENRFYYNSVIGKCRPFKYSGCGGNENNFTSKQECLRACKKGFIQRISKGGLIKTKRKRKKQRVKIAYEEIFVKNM
Experiment: cell-based or functional assay
Dear colleague, please return just the value in fold, with no unit written.

2A8 LC_D91L (Fab, V domains shown, also called 2A8-16) VH: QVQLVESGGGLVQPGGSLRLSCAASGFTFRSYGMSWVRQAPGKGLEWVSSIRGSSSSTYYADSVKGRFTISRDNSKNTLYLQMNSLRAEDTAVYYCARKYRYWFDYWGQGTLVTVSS VL: DIELTQPPSVSVAPGQTARISCSGDNLRNYYAHWYQQKPGQAPVVVIYYDNNRPSGIPERFSGSNSGNTATLTISGTQAEDEADYYCQSWLDGVPVFGGGTKLTVLG; 1.7

Record 2A8 HC_S31V (Fab, V domains shown, also called 2A8-3) VH: QVQLVESGGGLVQPGGSLRLSCAASGFTFRVYGMSWVRQAPGKGLEWVSSIRGSSSSTYYADSVKGRFTISRDNSKNTLYLQMNSLRAEDTAVYYCARKYRYWFDYWGQGTLVTVSS VL: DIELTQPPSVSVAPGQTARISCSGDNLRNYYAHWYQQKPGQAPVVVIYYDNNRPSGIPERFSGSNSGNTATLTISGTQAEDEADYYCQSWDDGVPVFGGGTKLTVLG . Reported Improvement vs parental, FXa restoring assay: 3.5
